tested on: Phomopsis obscurans; experiment: Antifungal activity against Phomopsis obscurans assessed as growth inhibition at 30 uM after 120 hr by microplate photometric analysis; assay type: functional; details: Paraphomopsis obscurans, read-out: GI
What inhibition of growth at 30 µM was measured for each of the following?
Write the value in % as a bare number.

Given O=c1cc(CCCCc2ccc3c(c2)OCO3)[nH]c2ccccc12 , state its recorded inhibition of growth at 30 µM.
100

What value of measured inhibition of growth at 30 µM is listed for COc1c2ccoc2cc2oc(=O)ccc12 [BERGAPTEN] ?
80

Bench note: what inhibition of growth at 30 µM did Cn1c(CCCCCCc2ccc3c(c2)OCO3)cc(=O)c2ccccc21 show?
100

Given the entry COc1c2occc2cc2ccc(=O)oc12 [METHOXSALEN] , report its measured inhibition of growth at 30 µM.
80

Item COc1cc2nc3occc3c(OC)c2cc1OC [KOKUSAGININE] has what recorded inhibition of growth at 30 µM?
80
